This section presents compounds with their documented half-life values.
assayMethodText: Test 5: predictive test of human half-life (monkey distribution volume, serum unbound fraction, microsomal stability)
Assay type: in vivo
measurementParameters: predicted from cynomolgus monkey distribution volume (i.v.), serum unbound fraction and human hepatic microsome stability
Provide the reading as a plain figure in h.

compound	half-life / h
Cn1ncc2c1CCCN(CCN1CCN(c3noc4ccccc34)CC1)C2=O [Example 80]	10

Switching to the query record.
Provide half-life value for the following compound: Cc1c2c(nn1C)CCN(CCN1CCC(c3noc4ccccc34)CC1)C2=O [Example 37] 8

---

targetEntity: human 5-HT1A receptor (Homo sapiens (Human))
Sequence (P08908 whole entry): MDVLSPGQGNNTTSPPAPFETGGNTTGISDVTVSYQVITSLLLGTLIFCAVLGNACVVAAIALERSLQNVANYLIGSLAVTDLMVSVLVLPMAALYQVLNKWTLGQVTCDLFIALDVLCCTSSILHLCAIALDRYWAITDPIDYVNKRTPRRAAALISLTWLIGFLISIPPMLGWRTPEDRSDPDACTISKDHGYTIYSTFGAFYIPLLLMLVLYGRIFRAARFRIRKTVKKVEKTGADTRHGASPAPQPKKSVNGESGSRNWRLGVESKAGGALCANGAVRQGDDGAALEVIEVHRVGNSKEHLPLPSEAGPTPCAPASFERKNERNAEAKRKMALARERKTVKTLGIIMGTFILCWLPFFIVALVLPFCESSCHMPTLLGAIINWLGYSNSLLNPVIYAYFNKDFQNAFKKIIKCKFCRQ
assayMethodText: Test 2: agonist activity for human 5-HT1A receptor ([35S]GTPγS binding)
measurementParameters: [35S]GTPγS binding; concentration at which half the activity of Emax was obtained
Class field: derived from EC50; ranges zone 1 = under 50 nM, zone 2 = from 50 nM up to 90 nM, zone 3 = 90 nM and over

Check out these entries, answers already filled in.
molecule	qualitativeLabel
Cc1ccc2onc(C3CCN(CCN4CCc5cccnc5C4=O)CC3)c2c1 [Example 89]	zone 2
O=c1c2ncccc2ccn1CCN1CCN(c2noc3ccccc23)CC1 [Example 117]	zone 3
CC1(C)CN(CCN2CCC(c3noc4cc(F)ccc34)CC2)C(=O)c2ncccc21 [Example 119]	zone 2
O=C1c2[nH]cnc2CCCN1CCN1CCN(c2nsc3ccccc23)CC1 [Example 100]	zone 2
O=C1c2cnccc2C2(CC2)CN1CCN1CCN(c2noc3ccccc23)CC1 [Example 136]	zone 3
CC(C)n1cc2c(n1)CCN(CCN1CCN(c3nsc4ccccc34)CC1)C2=O [Example 162]	zone 2
O=c1c2cnc(C3CC3)nc2ccn1CCN1CCN(c2nsc3ccccc23)CC1 [Example 182]	zone 1
O=C1c2cn(C3CC3)nc2CCN1CCN1CCN(c2nsc3ccccc23)CC1 [Example 75]	zone 1

We now examine a further molecule.
Bin? O=C1c2ncccc2CCN1CCN1CCN(c2noc3ccccc23)CC1 [Example 1] zone 3

---

targetEntity: hERG channel (Homo sapiens (Human), UniProt Q12809)
Sequence (Q12809 whole entry): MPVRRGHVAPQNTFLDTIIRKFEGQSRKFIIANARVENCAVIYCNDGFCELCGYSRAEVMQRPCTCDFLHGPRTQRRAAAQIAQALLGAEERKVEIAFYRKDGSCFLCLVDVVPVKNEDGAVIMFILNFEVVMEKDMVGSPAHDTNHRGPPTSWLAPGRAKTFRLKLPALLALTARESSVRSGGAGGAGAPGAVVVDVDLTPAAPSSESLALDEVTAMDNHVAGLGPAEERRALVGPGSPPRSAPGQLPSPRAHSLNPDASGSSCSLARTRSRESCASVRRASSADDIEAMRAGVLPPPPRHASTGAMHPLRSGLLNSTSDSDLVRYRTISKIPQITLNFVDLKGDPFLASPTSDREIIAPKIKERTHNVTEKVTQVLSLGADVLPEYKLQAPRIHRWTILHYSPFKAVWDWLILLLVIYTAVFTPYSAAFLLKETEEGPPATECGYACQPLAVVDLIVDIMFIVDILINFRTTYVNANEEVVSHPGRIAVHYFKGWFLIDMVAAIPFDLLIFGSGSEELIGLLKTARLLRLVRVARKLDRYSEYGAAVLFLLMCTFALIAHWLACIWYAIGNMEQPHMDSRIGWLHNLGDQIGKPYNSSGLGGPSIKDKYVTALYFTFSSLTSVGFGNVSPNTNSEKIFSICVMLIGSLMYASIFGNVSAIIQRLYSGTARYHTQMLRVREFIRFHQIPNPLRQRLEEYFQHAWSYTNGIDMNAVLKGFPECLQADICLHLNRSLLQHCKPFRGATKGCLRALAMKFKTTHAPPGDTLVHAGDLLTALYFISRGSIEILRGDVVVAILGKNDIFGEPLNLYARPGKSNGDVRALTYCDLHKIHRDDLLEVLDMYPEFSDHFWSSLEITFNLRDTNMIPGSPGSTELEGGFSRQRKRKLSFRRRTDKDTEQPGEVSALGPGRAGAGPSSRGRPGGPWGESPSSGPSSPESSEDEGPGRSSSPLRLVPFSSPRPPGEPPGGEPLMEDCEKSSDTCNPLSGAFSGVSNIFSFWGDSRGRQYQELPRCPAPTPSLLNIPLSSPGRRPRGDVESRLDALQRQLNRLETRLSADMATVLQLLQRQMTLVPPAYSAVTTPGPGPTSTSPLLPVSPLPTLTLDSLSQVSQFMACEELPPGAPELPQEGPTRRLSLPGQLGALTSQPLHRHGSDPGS
assayMethodText: Test 6-1: inhibitory activity for hERG channel (auto patch clamp, Qpatch)
Assay type: cell-based
measurementParameters: ratio of hERG IC50 to 5-HT1A Ki
This section presents molecules with their documented hERG inhibition IC50 (nmol/L)/5-HT1A Ki (nmol/L) values.
When you answer, write just the number.

// below: answered molecules
molecule	valueObserved
O=C1c2nc(Cl)ccc2CCN1CCN1CCC(c2noc3ccccc23)CC1 [Example 146]	99
Cn1cc2c(n1)CCN(CCN1CCN(c3nsc4ccccc34)CC1)C2=O [Example 36]	7112
Cn1ccc2c1CCN(CCN1CCC(c3noc4ccccc34)CC1)C2=O [Example 60]	51
Cc1nc2c(o1)C(=O)N(CCN1CCC(c3noc4ccccc34)CC1)CC2 [Example 35]	453
Cc1nc2c(o1)C(=O)N(CCN1CCC(c3noc4ccccc34)CC1)CCC2 [Example 154]	35

Provide hERG inhibition IC50 (nmol/L)/5-HT1A Ki (nmol/L) value for the following molecule: Cn1cnc2c1CCCN(CCN1CCC(c3noc4ccccc34)CC1)C2=O [Example 101] 68

Provide hERG inhibition IC50 (nmol/L)/5-HT1A Ki (nmol/L) value for the following molecule: Cc1cncc2c1CCN(CCN1CCN(c3noc4ccccc34)CC1)C2=O [Example 137] 41

---

assayMethodText: Test 4: metabolic stability test in human hepatic microsome
Format: in vitro ADME
measurementParameters: 0.1 mg/mL microsome, 0.1 μmol/L compound, 37° C., 30 minutes
Decision: Metabolic stability in human hepatic microsome compared against 0.2 mL/min/mg protein; not below it gives 1.0, below it gives 0.0.

Check out these entries, answers already filled in.
molecule	qualitativeLabel
Cc1ncc2c(n1)CCN(CCN1CCN(c3nsc4ccccc34)CC1)C2=O [Example 90]	0.0
[2H]C([2H])([2H])Oc1cc2c(cn1)C(=O)N(CCN1CCN(c3nsc4ccccc34)CC1)CC2([2H])[2H] [Example 107]	1.0
Cn1ncc2c1C(=O)N(CCN1CCN(c3nsc4ccccc34)CC1)CC2 [Example 59]	0.0
O=C1c2cnccc2C2(CC2)CN1CCN1CCN(c2noc3ccccc23)CC1 [Example 136]	1.0
Cn1cnc2c1CCN(CCN1CCN(c3nsc4ccccc34)CC1)C2=O [Example 54]	0.0

Evaluate Cn1cc2c(n1)CCCN(CCN1CCC(c3noc4ccccc34)CC1)C2=O [Example 41] : Metabolic stability in human hepatic microsome at minimum 0.2 mL/min/mg protein? 0.0

---

targetEntity: hERG channel (Homo sapiens (Human))
assayMethodText: Test 6-1: inhibitory activity for hERG channel (auto patch clamp, Qpatch)
Format: cell-based
measurementParameters: whole cell auto patch clamp, hERG-CHO cells; read-out: hERG inhibition IC50
pIC50: −log10 of the molar value.
Decision: pIC50 compared against 6; not below it gives rule met, below it gives rule not met.

Check out these entries, answers already filled in.
compound	qualitativeLabel
O=C1c2cn[nH]c2CCN1CCN1CCC(c2noc3ccccc23)CC1	rule not met
Cc1cc2c(cn1)C(=O)N(CCN1CCN(c3noc4ccccc34)CC1)CC21CC1	rule not met
Cn1cc2c(n1)CCCN(CCN1CCN(c3nsc4ccccc34)CC1)C2=O	rule not met
COc1cc2c(cn1)C(=O)N(CCN1CCN(c3noc4ccccc34)CC1)CC2	rule not met

Evaluate O=c1c2cccnc2ccn1CCN1CCN(c2noc3ccccc23)CC1 : pIC50 at minimum 6? rule not met

Evaluate O=C1c2ncccc2CCN1CCN1CCC(c2noc3cc(F)ccc23)CC1 [Example 4] : pIC50 at minimum 6? rule met

Evaluate Cn1cnc2c1CCCN(CCN1CCC(c3noc4ccccc34)CC1)C2=O : pIC50 at minimum 6? rule not met

Evaluate Cn1ncc2c1CCN(CCN1CCC(c3noc4ccccc34)CC1)C2=O : pIC50 at minimum 6? rule not met

Evaluate O=C1c2cn(C3CC3)nc2CCN1CCN1CCC(c2noc3ccccc23)CC1 : pIC50 at minimum 6? rule met

Evaluate O=C1c2occc2CCN1CCN1CCC(c2noc3ccccc23)CC1 : pIC50 at minimum 6? rule met

Evaluate [2H]C([2H])([2H])Oc1cc2c(cn1)C(=O)N(CCN1CCN(c3nsc4ccccc34)CC1)CC2([2H])[2H] : pIC50 at minimum 6? rule not met

Evaluate Cn1ncc2c1CCC(CCN1CCN(c3nsc4ccccc34)CC1)C2=O (stereo not drawn) : pIC50 at minimum 6? rule not met

Evaluate O=c1c2ncccc2ccn1CCN1CCC(c2noc3cc(F)ccc23)CC1 : pIC50 at minimum 6? rule met

---

targetEntity: P-gp (MDR1) (Homo sapiens (Human), UniProt P08183)
Sequence (P08183 whole entry, species assumed): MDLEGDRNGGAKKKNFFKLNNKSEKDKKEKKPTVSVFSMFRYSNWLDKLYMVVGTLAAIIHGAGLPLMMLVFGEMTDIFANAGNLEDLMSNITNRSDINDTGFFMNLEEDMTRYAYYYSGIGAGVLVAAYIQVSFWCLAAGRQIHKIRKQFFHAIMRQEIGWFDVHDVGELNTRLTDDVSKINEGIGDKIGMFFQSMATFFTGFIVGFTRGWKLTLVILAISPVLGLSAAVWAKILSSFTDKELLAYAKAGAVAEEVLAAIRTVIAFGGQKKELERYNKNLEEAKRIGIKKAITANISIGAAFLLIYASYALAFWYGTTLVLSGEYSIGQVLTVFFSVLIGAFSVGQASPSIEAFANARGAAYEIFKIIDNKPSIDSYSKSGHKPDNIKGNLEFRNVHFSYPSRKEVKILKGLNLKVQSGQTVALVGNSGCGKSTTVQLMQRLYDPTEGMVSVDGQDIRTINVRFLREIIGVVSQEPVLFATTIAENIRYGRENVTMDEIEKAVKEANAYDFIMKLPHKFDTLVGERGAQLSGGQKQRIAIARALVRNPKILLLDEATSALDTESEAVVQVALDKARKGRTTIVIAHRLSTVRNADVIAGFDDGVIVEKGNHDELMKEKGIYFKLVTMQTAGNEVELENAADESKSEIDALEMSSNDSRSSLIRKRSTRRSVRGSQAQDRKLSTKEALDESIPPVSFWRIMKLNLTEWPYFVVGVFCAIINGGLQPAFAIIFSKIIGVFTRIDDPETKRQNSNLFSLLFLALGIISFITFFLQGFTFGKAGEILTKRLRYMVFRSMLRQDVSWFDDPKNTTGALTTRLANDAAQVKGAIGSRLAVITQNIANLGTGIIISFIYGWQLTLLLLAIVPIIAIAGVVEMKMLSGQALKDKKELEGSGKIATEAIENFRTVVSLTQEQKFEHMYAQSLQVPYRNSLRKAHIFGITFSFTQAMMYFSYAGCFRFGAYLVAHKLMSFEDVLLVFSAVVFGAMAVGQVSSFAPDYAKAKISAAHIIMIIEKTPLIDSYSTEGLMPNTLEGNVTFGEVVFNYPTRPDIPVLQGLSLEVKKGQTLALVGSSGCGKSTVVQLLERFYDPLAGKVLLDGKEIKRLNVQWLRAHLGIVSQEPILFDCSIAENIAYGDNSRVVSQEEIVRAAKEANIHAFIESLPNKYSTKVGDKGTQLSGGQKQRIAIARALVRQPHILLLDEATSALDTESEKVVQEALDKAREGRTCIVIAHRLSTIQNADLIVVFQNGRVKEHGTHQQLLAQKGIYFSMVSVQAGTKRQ
assayMethodText: Test 9: P-gp substrate property (NFR, MDCKII and MDR1-MDCKII cells)
Format: in vitro ADME
measurementParameters: Net Flux Ratio, MDR1-MDCKII vs MDCKII cells
Description: Evaluation test for binding was carried out as follows with the CHO cell membrane fraction in which human target receptor was expressed. […] Radioactivity remaining on the filter was measured with a liquid scintillation counter (PerkinElmer, Inc.). Binding inhibition rate was calculated from the following formula. NFR (Net Flux Ratio), which is an index of P-gp substrate property, can be calculated as follows. […]
readoutName: NFR
When you answer, write just the number.

// below: answered compounds
1) Cn1cc2c(n1)CCN(CCN1CCN(c3nsc4ccccc34)CC1)C2=O 1.8
2) Cn1cnc2c1CCN(CCN1CCN(c3nsc4ccccc34)CC1)C2=O 6.6
3) Cn1ncc2c1C(=O)N(CCN1CCN(c3nsc4ccccc34)CC1)CC2 1.1
4) Cn1ncc2c1CCCN(CCN1CCC(c3noc4ccccc34)CC1)C2=O 2.2
5) CCc1ccc2c(n1)C(=O)N(CCN1CCC(c3noc4ccccc34)CC1)CC2 2.4
6) O=C1c2nc(Cl)ccc2CCN1CCN1CCC(c2noc3ccccc23)CC1 2.3

Provide NFR value for the following compound: Cn1ccc2c1CCN(CCN1CCC(c3noc4ccccc34)CC1)C2=O 1.5

---

targetEntity: UniProt:P28223
Sequence (P28223 whole entry): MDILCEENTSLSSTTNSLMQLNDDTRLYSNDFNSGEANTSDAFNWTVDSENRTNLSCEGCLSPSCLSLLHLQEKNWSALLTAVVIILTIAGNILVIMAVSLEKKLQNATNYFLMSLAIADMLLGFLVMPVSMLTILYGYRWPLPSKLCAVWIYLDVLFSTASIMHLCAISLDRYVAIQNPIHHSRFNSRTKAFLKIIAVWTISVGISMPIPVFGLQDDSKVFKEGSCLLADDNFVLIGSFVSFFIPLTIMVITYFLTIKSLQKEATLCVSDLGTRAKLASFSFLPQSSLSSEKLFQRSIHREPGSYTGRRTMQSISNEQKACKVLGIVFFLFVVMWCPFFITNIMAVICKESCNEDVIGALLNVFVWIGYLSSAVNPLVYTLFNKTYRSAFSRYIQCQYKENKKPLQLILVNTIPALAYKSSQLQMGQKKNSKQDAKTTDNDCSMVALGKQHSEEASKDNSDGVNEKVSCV
The threshold is 4 nM. Values of Ki beneath it are tagged satisfied; values meeting or exceeding it are tagged not satisfied.

compound	qualitativeLabel
O=C1c2cnccc2CCN1CCN1CCN(c2nsc3ccccc23)CC1	satisfied
Cn1ncc2c1C(=O)N(CCN1CCN(c3nsc4ccccc34)CC1)CCC2	not satisfied
Cn1ncc2c1CCCN(CCN1CCN(c3noc4ccccc34)CC1)C2=O	satisfied
Cn1cc2c(n1)C(=O)N(CCN1CCN(c3nsc4ccccc34)CC1)CCC2	satisfied
COc1ccc2onc(C3CCN(CCN4CCc5cccnc5C4=O)CC3)c2c1	not satisfied
O=C1c2cnc(OC3COC3)cc2CCN1CCN1CCN(c2nsc3ccccc23)CC1	satisfied
CCc1ccc2c(n1)C(=O)N(CCN1CCC(c3noc4ccccc34)CC1)CC2	not satisfied
Cc1cncc2c1CCN(CCN1CCN(c3noc4ccccc34)CC1)C2=O	not satisfied
Cc1cc2c(cn1)C(=O)N(CCN1CC=C(c3noc4ccccc34)CC1)CC2	not satisfied
O=C1c2cnc(C(F)(F)F)cc2CCN1CCN1CCN(c2nsc3ccccc23)CC1	satisfied

Is Ki strictly under 4 nM for the entry Cn1ncc2c1C(=O)N(CCN1CCN(c3nsc4ccccc34)CC1)CC2 ? satisfied

Is Ki strictly under 4 nM for the entry O=C1c2ncccc2CCN1CCN1CCC(c2noc3ccccc23)CC1 ? not satisfied

Is Ki strictly under 4 nM for the entry Cc1noc2c1C(=O)N(CCN1CCC(c3noc4ccccc34)CC1)CCC2 ? not satisfied

Is Ki strictly under 4 nM for the entry O=c1c2cccnc2ccn1CCN1CCN(c2nsc3ccccc23)CC1 ? satisfied

Is Ki strictly under 4 nM for the entry O=C1c2cncnc2CCN1CCN1CCC(c2noc3ccccc23)CC1 ? not satisfied

Is Ki strictly under 4 nM for the entry Cc1noc2c1C(=O)N(CCN1CCN(c3noc4ccccc34)CC1)CC2 ? not satisfied

Is Ki strictly under 4 nM for the entry O=C1c2ncccc2CCC1CCN1CCC(c2noc3ccccc23)CC1 (stereo not drawn) ? satisfied
